Data origin: PubChem BioAssay (NCI)

Tested on: KM12 colon
Experiment: NCI tumour cell line growth inhibition, 48 h

Molecule: COC(=O)CNC(=O)C(Cc1ccccc1)NC(=O)c1ccc(-c2ccc(Cl)cc2Cl)o1 (stereo not drawn)
TGI: 91.2 µM

Molecule: CN(C)CCNC(=O)c1cccc2ccc(-c3ccc(Br)cc3)nc12
TGI: 15.5 µM

Molecule: O=C(NC(=Nc1ccccc1)SCSC(=Nc1ccccc1)NC(=O)c1ccco1)c1ccco1
TGI: > 100 µM

Molecule: O=C(O)CCCCn1ccc(=O)[nH]c1=O
TGI: > 100 µM

Molecule: OCC1OC2c3ccccc3COC2C1OCc1ccccc1 (stereo not drawn)
TGI: > 100 µM

Molecule: Cc1cc2nc3c(C#N)c4c(c(Nc5ccc(F)cc5)n3c2cc1C)CCC4
TGI: > 100 µM

Molecule: COC(=O)C1CSC(c2csc(CCN)n2)=N1 (stereo not drawn)
TGI: > 100 µM

Molecule: COC(=O)Cc1c([C@@]2(C)CCCC(C)(C)C2)ccc2c1C(=O)OC2
TGI: 30.6 µM

Molecule: CCOC(=O)c1nc2ccc(OC)cc2c2c1Cc1ccccc1-2
TGI: > 100 µM

Molecule: Cc1c(Cc2ccccc2)n(C(C)OCCN(OC(=O)Oc2ccccc2)C(=O)Oc2ccccc2)c(=O)[nH]c1=O (stereo not drawn)
TGI: 29.9 µM

Molecule: Cc1nnc(N)nc1/C=C\c1ccc(Cl)cc1Cl
TGI: 32.6 µM

Molecule: COC(=O)c1c(O)ccc2c1c1cc3ccccc3cc1n2Cc1cc(OC)cc(OC)c1
TGI: > 27.1 µM

Molecule: CC1(C)OC[C@H](C(=N)OCc2ccccc2)O1
TGI: > 100 µM
